System: NCI-H23 lung
methodSummary: NCI tumour cell line growth inhibition, 48 h
We begin with a simple list: items and their reported TGI.

| molecule | TGI |
| --- | --- |
| OCC(O)C(O)C(O)c1nn[nH]n1 (stereo unspecified) | > 100 µM |
| COc1ccc(C(=C(C#N)C#N)c2ccc(OC)cc2)cc1 | > 100 µM |
| Cc1ccc2c(=O)cc(-c3cc4ccccc4s3)[nH]c2n1 | > 100 µM |
| CCOC(=O)NC(=O)c1cn(CC(=O)NCC(=O)NCC(=O)N2CCN(CCn3c(C)nc(C(N)=O)c3N)CC2)c(=O)[nH]c1=O | > 100 µM |
| COc1ccc(C2CC(c3ccc4ccccc4c3)=NN2/C=C2\SC(=S)N(NC(=O)Cc3ccccc3Nc3c(Cl)cccc3Cl)C2=O)cc1 (stereo unspecified) | > 46.8 µM |
| COc1cccc(-c2cc(=O)c3cc(C)c(C)c(C(=O)O)c3o2)c1 | > 100 µM |
| O=C(O)c1[nH]c(=O)[nH]c(=O)c1CN1CCCCC1 | > 100 µM |
| CN(C)CCn1c2c(c3ccccc31)CCc1ccccc1-2 | 31.4 µM |
| O=C1/C(=N/N=C(c2ccccc2)c2ccccc2)c2ccccc2-c2ccccc21 | > 100 µM |
| C/C(=N\N)C(CN1CCCCC1)C(c1ccccc1)c1c(O)c2ccccc2oc1=O (stereo unspecified) | > 100 µM |
| CC(C)COC(=O)N1N=NC2C3CC(=O)C(O3)C21 (stereo unspecified) | > 100 µM |

###

We begin with a simple list: items and their reported TGI.
System: HT29 colon
methodSummary: NCI tumour cell line growth inhibition, 48 h

| molecule | measurementTarget | u | comparisonSign | TGI |
| --- | --- | --- | --- | --- |
| Cn1cc(S(=O)(=O)NC(=O)Nc2ccc(Cl)cc2)c(=O)c2ccc(Cl)cc21 | HT29 colon | µM | > | 100 |
| COc1ccc2c3c(ccc2c1)NC(C(=O)O)CC3 (stereo not drawn) | HT29 colon | µM | > | 100 |
| C=C(C)[C@@H]1CC[C@]2(C(=O)N3CCN(C)CC3)CC[C@]3(C)[C@H](CC[C@@H]4[C@@]5(C)C/C(=C/c6ccncc6)[C@H](O)C(C)(C)[C@@H]5CC[C@]43C)[C@@H]12 | HT29 colon | µM | = | 11.2 |
| [O-]c1ccccc1[C-]=Nc1ccccc1O.[O-]c1ccccc1[C-]=Nc1ccccc1O.[O]=[U]=[O] | HT29 colon | µM | = | 95.3 |
| N#CC1=C(c2ccccc2)NN(Cc2ccccc2)C(c2ccc(Cl)cc2)CC1=O (stereo not drawn) | HT29 colon | µM | = | 38.7 |
| CC(=O)OC1COC(n2c(O)c(N=Nc3ccc([N+](=O)[O-])cc3)c3cc(Br)c([N+](=O)[O-])cc32)C(OC(C)=O)C1OC(C)=O (stereo not drawn) | HT29 colon | µM | > | 100 |
| COc1ccc2nc(-c3ccc(Cl)cc3)cc(-c3nnc(SCC(=O)Nc4ccc(/C(C)=N\O)cc4)o3)c2c1 | HT29 colon | µM | = | 5.54 |
| O=C(O)c1[nH]c(=O)[nH]c(=O)c1CN1CCCCC1 | HT29 colon | µM | > | 100 |
